Assay: chemical genetic growth profiling, strain panel (AID 1159580);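 also: tested at 20 µM; growth read once vehicle control cultures reached saturation at 30 °C; 1 = growth at the plate median or of vehicle wells; lower values mean less growth of the strain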
Settings: S. cerevisiae deletion strains, growth OD, locus YEL037C, strain rad23
Among all 5,500 compounds or so, about 2,000 (36%) were called active. Not shown: some 18% with an inconclusive outcome. Rule as the data show it: active = normalized growth mostly below about 0.91 (no sharp cut-off); inconclusive = no clear call, values can overlap the other calls; inactive = mostly above about 0.92. The list shows a part of the results.
Possible outcomes: active, inactive

>>> category("C/C(=C\\CO)CC[C@H](C)CCC[C@H](C)CCCC(C)C")
"active"
>>> category("C=C(C)C1Cc2c(ccc3c(=O)c4c(oc23)COc2cc(OC)c(OC)cc2-4)O1 (stereo not given)")
"inactive"
>>> category("O=c1c(O)c(-c2ccc(O)cc2)oc2ccccc12")
"active"
>>> category("NC(=NCCCCCCN=C(N)N=C(N)Nc1ccc(Cl)cc1)N=C(N)Nc1ccc(Cl)cc1")
"active"
>>> category("CNC(C)[C@@H]1CC[C@@H](N)[C@@H](OC2[C@@H](N)C[C@@H](N)[C@H](OC3OC[C@](C)(O)[C@H](NC)[C@H]3O)[C@H]2O)O1 (stereo not given in full)")
"inactive"
>>> category("CC(=CC1CCC(C)C2C1=C(C)CC2O)C(=O)O (stereo not given)")
"inactive"
>>> category("CN1CCCCC1c1ccc(-c2cccnc2)nc1 (stereo not given)")
"inactive"
>>> category("C[C@H]1C(=O)CCC2[C@]3(C)CC[C@@]4(C)C5CC(C)(C)CC[C@]5(C)CC[C@]4(C)C3CC[C@@]21C (stereo not given in full)")
"inactive"
>>> category("CC(=O)CCCCn1c(=O)c2c(ncn2C)n(C)c1=O")
"inactive"
>>> category("O=C(Nc1ccc([N+](=O)[O-])cc1Cl)c1cc(Cl)ccc1O")
"inactive"
>>> category("CC(C)CCCC(C)N (stereo not given)")
"inactive"
>>> category("CN1CCC[C@H]1c1cccnc1")
"inactive"
>>> category("COc1cc(Cc2cnc(N)nc2N)cc(OC)c1OC")
"inactive"
>>> category("CC(=CC1CCC(C)C2CCC(C)=C12)C(=O)O (stereo not given)")
"inactive"
>>> category("COc1cc2c(cc1OC)C(C)NCC2 (stereo not given)")
"inactive"

----------
Test: chemical genetic growth profiling, strain panel (AID 1159580);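 also: tested at 20 µM; growth read once vehicle control cultures reached saturation at 30 °C; 1 = growth at the plate median or of vehicle wells; lower values mean less growth of the strain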
Settings: S. cerevisiae deletion strains, growth OD, locus YLL001W, strain dnm1, stronger effect = lower value
Hit rate of the full screen: of about 5,500 compounds, about 2,000 (36%) were called active. Not shown: some 18% with an inconclusive outcome. This is one part of the list.
test_readout: normalized growth

>>> endpoint_value("CN1CCN(C2=Nc3cc(Cl)ccc3Nc3ccccc32)CC1")
0.984
>>> endpoint_value("CCC1(C2=NCCN2)Cc2ccccc2O1 (configuration not stated)")
1.01
>>> endpoint_value("O=C1C=CC(=O)c2c(O)cccc21")
0.968
>>> endpoint_value("CC(=O)CCCCn1c(=O)c2c(ncn2C)n(C)c1=O")
1.01
>>> endpoint_value("CC(=O)O[C@H]1CC2CCC3C(CC[C@@]4(C)C3C[C@H]([N+]3(C)CCCCC3)[C@@H]4OC(C)=O)[C@@]2(C)C[C@@H]1N1CCCCC1 (some centres not stated)")
1.01
>>> endpoint_value("CC1(C)CC23C(=O)CCC(O)C2(C)CCC13 (configuration not stated)")
0.99
>>> endpoint_value("Cn1c(=O)[nH]c2nc[nH]c2c1=O")
0.977
>>> endpoint_value("CC(=CC1CCC(C)C2CCC(C)=C12)C(=O)O (configuration not stated)")
0.966
>>> endpoint_value("C=CC[C@@H]1/C=C(\\C)C[C@H](C)C[C@H](OC)[C@H]2O[C@@](O)(C(=O)C(=O)N3CCCC[C@H]3C(=O)O[C@H](/C(C)=C/[C@@H]3CC[C@@H](O)[C@H](OC)C3)[C@H](C)[C@@H](O)CC1=O)[C@H](C)C[C@@H]2OC")
0.932
>>> endpoint_value("O=C(O)CCC(=O)OC[C@@H](NC(=O)C(Cl)Cl)[C@H](O)c1ccc([N+](=O)[O-])cc1")
0.937
>>> endpoint_value("CC(=O)O[C@@H]1C2CC[C@@H]3C1(C[C@@H](O)[C@@]1(O)[C@@H](C[C@H](O)C1(C)C)[C@]3(C)O)C[C@@]2(C)O (some centres not stated)")
0.991
>>> endpoint_value("CC12CCC(O)CC1CCc1ccccc12 (configuration not stated)")
0.991
>>> endpoint_value("Cn1cnc2c1c(=O)[nH]c(=O)n2C")
0.994
>>> endpoint_value("CCCN(CCC)c1c([N+](=O)[O-])cc(C(F)(F)F)cc1[N+](=O)[O-]")
0.999
>>> endpoint_value("Cn1c(=O)c2c(ncn2CCO)n(C)c1=O")
0.993
>>> endpoint_value("CC[C@H]1OC(=O)[C@H](C)[C@@H](O[C@H]2C[C@@](C)(OC)[C@@H](O)[C@H](C)O2)[C@H](C)[C@@H](O[C@@H]2O[C@H](C)C[C@H](N(C)C)[C@H]2O)[C@](C)(O)C[C@@H](C)/C(=N/OCOCCOC)[C@H](C)[C@@H](O)[C@]1(C)O")
1.02
>>> endpoint_value("O=C(O)c1cccnc1C(=O)O")
1.04
>>> endpoint_value("Cc1cc2nc3c(=O)[nH]c(=O)nc-3n(CC(O)C(O)C(O)CO)c2cc1C (configuration not stated)")
0.95
>>> endpoint_value("COc1cc([C@@H]2c3cc4c(cc3[C@H](O)[C@H]3COC(=O)[C@H]23)OCO4)cc(OC)c1OC")
0.984
>>> endpoint_value("Cn1c(=O)[nH]c2ncn(C)c2c1=O")
0.988
>>> endpoint_value("O=C(N[C@@H](CO)[C@H](O)c1ccc([N+](=O)[O-])cc1)C(Cl)Cl")
1.01
>>> endpoint_value("COC(=O)CC1C(C)(C(=O)c2ccoc2)CC2OCC34C(CC(=O)OC)C5(C)CC36OC3(C)OC1(C(OC(C)=O)C6(OC(C)=O)C5OC(=O)C(C)C)C24O3 (configuration not stated)")
1.01
